tested on: SF-268 CNS; assay: NCI-60 one-dose screen, 48 h; details: 10 µM unless noted
The panel holds about 83,000 compounds, 20% with a hit somewhere; the sample as a whole holds those more often. The source made the active and inactive calls. The calls were made as follows: active = growth percent below 10; inactive = the rest.
Would you mind answering with one of these outcomes? active, inactive

Would you please look over these solved cases?
Molecule	Tested system	Discrete label
N#CC1=C(c2cccs2)Nc2c(c(-c3ccccc3)nn2-c2ccccc2)C12C(=O)Nc1ccccc12 (stereo unspecified)	SF-268 CNS	inactive
COC(=O)c1ccc(-c2c(-c3ccccc3)c(F)c3oc(C(=O)OC)c(N)c3c2-c2ccccc2)cc1	SF-268 CNS	inactive
O=[N+]([O-])c1cccc(-c2nnc3c(/C=C/c4ccc(F)cc4)nc4ccccc4n23)c1	SF-268 CNS	inactive
O=C1CCC(N2C(=O)c3cccc(NCCCCCC(=O)N4CCN(c5ccc6nc7c(nc6c5C(F)(F)F)C(=O)c5ncccc5C7=O)CC4)c3C2=O)C(=O)N1 (stereo unspecified)	SF-268 CNS	active
O=C(Nc1ccc(Br)cc1)Nc1ccc(-c2ccc3c(c2)NC(=O)/C3=C\c2ccc[nH]2)cc1	SF-268 CNS	inactive

Could you please tell me the result logged for `O=C(Nc1nc2ccccc2s1)Nc1ccccc1Cl` in this assay?
inactive

Hey, what did the test say about `CC(C)CN1C(=O)/C(=C\C(=O)c2cc3ccccc3oc2=O)c2ccccc21` ?
inactive

What did this assay record as the result for `O=C1Nc2ccccc2/C1=C\c1ccc(OCC(=O)c2ccc(Br)cc2)cc1` ?
inactive

Write down the call the test reported for this molecule. Item: `N#Cc1cc(-c2ccnc(Nc3ccc(N4CCN(C5COC5)CC4)cc3)n2)ccc1N1CCCC1`
inactive

Any idea what this test logged for `CCCSc1nnc(-c2c(C)nc3sccn23)o1` ?
inactive

---

tested on: CAKI-1 renal; assay: NCI-60 one-dose screen, 48 h (100 = growth as untreated, 0 = no growth, -100 = all killed); conditions: 10 µM unless noted
The panel holds about 83,000 compounds, 20% with a hit somewhere; the sample as a whole holds those more often. Activity calls are given as the source filed them. Rule for the calls: active = growth percent below 10; inactive = the rest.
Property name: growth

Examples with answers:
O=C1Nc2cc(-c3ccc(NS(=O)(=O)c4ccc(F)c(Cl)c4)cc3)ccc2/C1=C/c1ccc[nH]1 33% (inactive)
COc1cccc(C(N)=Nc2ccc(OCCCCCCCCn3cncn3)cc2)c1 40.3% (inactive)
CCC(=O)c1cc(C(=O)OC)c2ccc3c4ccccc4ccc3n12 42.7% (inactive)
Nc1nc(-c2ccccc2)c(N=Nc2ccc(Cl)cc2Cl)s1 -34.3% (active)

// below: growth requested for another molecule
Query: growth; subject: `CCc1ccccc1NC(=O)N/C(N)=N/c1nc2ccccc2s1`
4.86% (active)

---

test system: SF-295 CNS; assay: NCI-60 one-dose screen, 48 h (100 = growth as untreated, 0 = no growth, -100 = all killed); details: 10 µM unless noted
This is part of a sample that, as a whole, favours compounds with a hit. Of some 83,000 tested, about 20% had one in any assay.
Classify by measured growth: satisfied if it is equal to or exceeds 70%, not satisfied if it is smaller.

Reported growth reaches at least 70% for `Cc1ccc(C(=O)Nc2cc(-c3ccncc3)cc(C(F)(F)F)c2)cc1C#Cc1cnc2cccnn12` ?
not satisfied

Given `Cc1ccc2c(c1)nc(-c1ccccc1)n2CC(=O)N=Nc1c(O)[nH]c2ccc(Cl)cc12` , state whether its growth is at least 70%.
not satisfied

Would you say `Cc1ccc(Nc2nnc(-c3c[nH]c4ccccc34)o2)c(C)c1` shows growth at minimum 70%?
not satisfied

Reported growth reaches at least 70% for `O=C1Nc2cc(-c3ccc(NS(=O)(=O)c4ccc(F)c(Cl)c4)cc3)ccc2/C1=C/c1ccc[nH]1` ?
not satisfied

---

system: NCI-H322M lung; experiment: NCI-60 one-dose screen, 48 h (100 = growth as untreated, 0 = no growth, -100 = all killed); conditions: 10 µM unless noted
About 83,000 compounds went through this panel and 20% of them were active in at least one assay; those are over-represented in the sample as a whole.
growth listing for selected compounds.
State the answer as a number, implicitly in %.

O=C(Nc1nc2ccc([N+](=O)[O-])cc2s1)Nc1ccc(Cl)cc1Cl 72.2
COC(=O)c1cc(C(=O)CBr)n2c1ccc1c3ccccc3ccc12 82.8
NC(=Nc1ccc(OCCCCCCCCn2cnnn2)cc1)c1ccccc1 57

I am curious: what growth value has been reported for `Cc1ccc(S(=O)(=O)Nc2ccc(-c3ccc4c(c3)NC(=O)/C4=C\c3ccc[nH]3)cc2)cc1` ?
68.3

I am curious: what growth value has been reported for `O=C1Nc2ccccc2/C1=C\c1ccc(OCC(=O)c2ccc(Br)cc2)cc1` ?
87.5

---

test system: HOP-62 NSCLC; experiment: NCI-60 one-dose screen, 48 h (100 = growth as untreated, 0 = no growth, -100 = all killed); conditions: 10 µM unless noted
This is part of a sample that, as a whole, favours compounds with a hit. Of some 83,000 tested, about 20% had one in any assay.
Property name: growth (%)
# unit: % | format: bare number

Compound	Property name	Unit abbrev	Readout value
Cc1ccc(Cl)cc1NC(=O)N/C(N)=N/c1nc2ccccc2s1	growth	%	-11.7
O=C(CSc1nc2sc3c(c2c(=O)n1-c1ccc(Cl)cc1)CCCC3)NNC(=O)c1ccc(Br)cc1	growth	%	17

Missing value: growth, HOP-62 NSCLC, entry `COc1ccc(C(=O)NNC(=O)CSc2nc3sc4c(c3c(=O)n2-c2ccc(Cl)cc2)CCCC4)cc1` . Fill in?
18.7

For HOP-62 NSCLC, provide growth of `C#CCCCNCCNc1ccnc2cc(Cl)ccc12` please.
79.1

---

system: HS 578T breast; test: NCI-60 one-dose screen, 48 h; settings: 10 µM unless noted
The panel holds about 83,000 compounds, 20% with a hit somewhere; the sample as a whole holds those more often. Calls of active or inactive are those of the source. Rule for the calls: active = growth percent below 10; inactive = the rest.
Respond using exactly one of the listed classes: true (active), false (inactive)

Compound	Discrete label
N/C(=N\c1nc2ccccc2s1)NC(=O)Nc1ccccc1F	true
c1ccc(CSc2nnc(-c3ccc4nc(-c5ccccc5)[nH]c4c3)o2)cc1	true
O=C(N=Nc1c(O)[nH]c2ccc(Br)cc12)c1ccc2nc(-c3ccc(Cl)cc3)[nH]c2c1	true
Cc1nc2sccn2c1-c1nnc(SCc2ccccc2)o1	false
COc1ccc2c(c1)C(Sc1ccc(F)cc1)c1c(nc(N)c(C#N)c1N)O2 (stereo not given)	false
Cc1nn(-c2ccccc2)c2nc(C)n(CC(=O)N/N=C/c3ccccc3O)c(=O)c12	false

Please state the recorded outcome for this compound: `COc1ccc(-c2cc(C)nc3[nH]c(=O)sc23)cc1`
false

Which outcome did this test record for the compound `Cc1cnc2ccc(Oc3ccccc3-c3ccccc3)nn12` ?
false

Tell me the recorded outcome of this test for `CS(=O)(=O)Nc1cc(-c2ccc3ncnc(N4CCc5cc(F)c(Cl)cc54)c3c2)cnc1Cl` .
true

Per the assay record, what outcome was assigned to `O=C(COc1ccc(/C=C2/C(=O)Nc3ccc(Cl)cc32)cc1)Nc1ccc(Br)cc1` ?
true

---

system: SW-620 colon; assay: NCI-60 one-dose screen, 48 h (100 = growth as untreated, 0 = no growth, -100 = all killed); settings: 10 µM unless noted
Compounds without any hit were thinned out: in the full panel of roughly 83,000, 20% have a hit.
Property name: growth (%)
// note: answer is a bare numeric in %

Reference set, count: 2
Molecule	Unit abbrev	growth
Cc1ccc(C2CC(c3ccc(NC(=O)Nc4ccccc4)cc3)=NN2c2ccc(S(C)(=O)=O)cc2)cc1 (centres undefined)	%	-42.6
N#Cc1cc(-c2ccnc(Nc3ccc(N4CCN(C5COC5)CC4)cc3)n2)ccc1N1CCCC1	%	72.7

Record request: growth value, item `NS(=O)(=O)c1ccc(Nc2nc(SCC(=O)c3ccc(F)cc3)nc3ccccc23)cc1`
50.5

Param item = CN1C(=O)C2(C(C#N)=C(c3ccc(Cl)cc3)Nc3c2c(-c2ccccc2)nn3-c2ccccc2)c2ccccc21 (centres undefined) ; retrieve measured growth.
106

---

Recorded growth for the following compounds
system: SF-539 CNS; assay: NCI-60 one-dose screen, 48 h (100 = growth as untreated, 0 = no growth, -100 = all killed); details: 10 µM
This is part of a sample that, as a whole, favours compounds with a hit. Of some 83,000 tested, about 20% had one in any assay.
Quick note: give the figure in %, leave out the unit.

Previously resolved entries follow.
CC/C(=C(/c1ccc(O)cc1)c1ccc(OCCN(C)C(=O)CCOCCNC(=O)Cc2ccc3c(c2)CN([C@@H]2CCC(=O)NC2=O)C3=O)cc1)c1ccccc1 78.4
CC/C(=C(/c1ccc(O)cc1)c1ccc(OCCN(C)C(=O)COCCOCCNC(=O)c2ccc3c(c2)CN([C@@H]2CCC(=O)NC2=O)C3=O)cc1)c1ccccc1 91.1
CC/C(=C(\c1ccc(O)cc1)c1ccc(OCCN(C)C(=O)COCCNC(=O)Cc2ccc3c(c2)CN([C@@H]2CCC(=O)NC2=O)C3=O)cc1)c1ccccc1 55.1

Consider the record given below.
Look up growth: `CC/C(=C(/c1ccc(O)cc1)c1ccc(OCCN(C)C(=O)COCCOCCNC(=O)Cc2ccc3c(c2)CN([C@@H]2CCC(=O)NC2=O)C3=O)cc1)c1ccccc1`
65.3
